Experimental Target: HLA-A*0203 (human)
Assay Remarks: competitive inhibition of 125I-labelled standard peptide binding to purified HLA, gel filtration
Condition Details: remark: other sources report otherwise
Endpoint: IC50 (nM)

(a) FLRPRSLQCV (modifications not checked) [peptide 1419.07 … (HuK2.165)]
(b) SLHLLSNDMCA (modifications not checked) [peptide 1419.14 … (HuK2.175)]
Request: For the pair a and b , which entry has the numerically smaller recorded IC50? Your answer should be the label attached to the chosen record.
Response: a
(a: 4 nM, b: 73 nM)
